Biological target: RAF kinases (Homo sapiens)
Sequence (P04049 whole entry): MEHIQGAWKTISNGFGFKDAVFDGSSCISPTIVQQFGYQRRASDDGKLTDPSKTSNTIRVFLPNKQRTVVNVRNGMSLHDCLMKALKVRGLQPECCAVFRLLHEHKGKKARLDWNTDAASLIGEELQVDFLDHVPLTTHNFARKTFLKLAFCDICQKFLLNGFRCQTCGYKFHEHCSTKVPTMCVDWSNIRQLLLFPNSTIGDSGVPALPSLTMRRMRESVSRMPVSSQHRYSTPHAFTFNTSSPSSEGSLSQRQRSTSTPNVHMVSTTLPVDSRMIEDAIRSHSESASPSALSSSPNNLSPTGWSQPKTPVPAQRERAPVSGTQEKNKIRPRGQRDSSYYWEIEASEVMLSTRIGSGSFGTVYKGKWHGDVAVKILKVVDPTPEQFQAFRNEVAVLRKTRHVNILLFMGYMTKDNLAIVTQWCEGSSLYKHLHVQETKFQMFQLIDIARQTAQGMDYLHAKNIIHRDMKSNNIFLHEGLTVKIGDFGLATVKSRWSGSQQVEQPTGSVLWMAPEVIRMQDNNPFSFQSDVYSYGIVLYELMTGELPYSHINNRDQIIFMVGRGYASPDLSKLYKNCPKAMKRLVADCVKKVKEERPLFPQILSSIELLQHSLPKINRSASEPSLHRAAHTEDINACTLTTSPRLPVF
Conditions: read-out: RAF1 Kd; RAF1
Overview of reported Kd across a group of molecules:
quantity_name: Kd

[[record]]
compound_smiles = "CCOc1cc2ncnc(Oc3cccc(NC(=O)Nc4cc(C(C)(CF)CF)on4)c3)c2cc1OC"
assayed_target = "RAF kinases (Homo sapiens)"
reported_value = "< 250 nM"

[[record]]
compound_smiles = "COCCOc1cc2ncnc(Oc3cccc(NC(=O)Nc4cc(C(F)(F)F)n(C)n4)c3)c2cc1OC"
assayed_target = "RAF kinases (Homo sapiens)"
reported_value = "< 250 nM"

[[record]]
compound_smiles = "CCOC(=O)Cn1nc(C(C)(C)C)cc1NC(=O)Nc1cccc(Sc2ncnc3cc(OCCOC)c(OC)cc23)c1"
assayed_target = "RAF kinases (Homo sapiens)"
reported_value = "> 1000 nM"

[[record]]
compound_smiles = "COc1cc2ncnc(Oc3cccc(NC(=O)Nc4cc(C(C)(C)C(F)(F)F)on4)c3)c2cc1OC"
assayed_target = "RAF kinases (Homo sapiens)"
reported_value = "< 250 nM"

[[record]]
compound_smiles = "COCCOc1cc2ncnc(Oc3cccc(NC(=O)Nc4cc(C(F)(F)F)n(-c5ccccc5)n4)c3)c2cc1OC"
assayed_target = "RAF kinases (Homo sapiens)"
reported_value = "> 1000 nM"

[[record]]
compound_smiles = "COCCOc1cc2ncnc(Sc3cccc(NC(=O)Nc4cc(C(C)(C)C)nn4-c4ccc(C)cc4C)c3)c2cc1OC"
assayed_target = "RAF kinases (Homo sapiens)"
reported_value = "> 1000 nM"

[[record]]
compound_smiles = "COc1cc2ncnc(Oc3cccc(NC(=O)Nc4cc(C(C)(C)C)nn4-c4ccnc(C)c4)c3)c2cc1OC"
assayed_target = "RAF kinases (Homo sapiens)"
reported_value = "> 1000 nM"

[[record]]
compound_smiles = "COc1ccc(-n2nc(C(C)(C)C)cc2NC(=O)Nc2cccc(Sc3ncnc4cc(OC)c(OC)cc34)c2)cc1"
assayed_target = "RAF kinases (Homo sapiens)"
reported_value = "> 1000 nM"

[[record]]
compound_smiles = "COc1cc2ncnc(Oc3cccc(NC(=O)Nc4cc(C(C)(CF)CF)on4)c3F)c2cc1OC"
assayed_target = "RAF kinases (Homo sapiens)"
reported_value = "< 250 nM"

[[record]]
compound_smiles = "COc1cc2ncnc(Oc3cccc(NC(=O)Nc4cc(C5CC5)nn4-c4ccccc4)c3)c2cc1OC"
assayed_target = "RAF kinases (Homo sapiens)"
reported_value = "< 250 nM"


---

Target: RAF kinases (Homo sapiens)
Assay: biochemical
Items are presented alongside their recorded Kd.
quantity_name: Kd

[[record]]
compound = "COc1cc2c(Oc3cccc(NC(=O)Nc4cc(C(C)(C)C)on4)c3)ncnc2cc1O[C@H]1CCN(C)C1 [Ex 97, mono acetate]"
assayed_target = "RAF kinases (Homo sapiens)"
quantity_name = "Kd"
reported_value = "500 to 1000 nM"

[[record]]
compound = "COc1cc2c(Oc3cccc(NC(=O)Nc4cc(C(C)(C)F)no4)c3)ncnc2cc1OCCN1CCOCC1 [Ex 251]"
assayed_target = "RAF kinases (Homo sapiens)"
quantity_name = "Kd"
reported_value = "250 to 500 nM"

[[record]]
compound = "COc1cc2ncnc(Sc3cccc(NC(=O)Nc4ccc(C(F)(F)F)cc4)c3)c2cc1OC [Ex 184]"
assayed_target = "RAF kinases (Homo sapiens)"
quantity_name = "Kd"
reported_value = "250 to 500 nM"

[[record]]
compound = "CCOc1cc2c(Oc3cccc(NC(=O)Nc4cc(C(F)(F)F)nn4-c4ccccc4)c3)ncnc2cc1OC [Ex 391]"
assayed_target = "RAF kinases (Homo sapiens)"
quantity_name = "Kd"
reported_value = "250 to 500 nM"

[[record]]
compound = "COCCOc1cc2ncnc(Oc3cccc(NC(=O)Nc4cc(-c5ccccc5)on4)c3)c2cc1OC [Ex 203]"
assayed_target = "RAF kinases (Homo sapiens)"
quantity_name = "Kd"
reported_value = "> 1000 nM"

[[record]]
compound = "COc1cc2ncnc(Sc3cccc(NC(=O)Nc4cc(C(C)(C)C)nn4-c4cccnc4)c3)c2cc1OC [Ex 323]"
assayed_target = "RAF kinases (Homo sapiens)"
quantity_name = "Kd"
reported_value = "500 to 1000 nM"

[[record]]
compound = "CCOc1cc2ncnc(Oc3cccc(NC(=O)Nc4cc(C(F)(F)F)nn4-c4ccccc4)c3)c2cc1OC [Example 384]"
assayed_target = "RAF kinases (Homo sapiens)"
quantity_name = "Kd"
reported_value = "250 to 500 nM"

[[record]]
compound = "COc1cc2ncnc(Oc3cccc(NC(=O)Nc4cc(C(C)(C)C#N)nn4-c4ccccc4)c3)c2cc1OC [Ex 308]"
assayed_target = "RAF kinases (Homo sapiens)"
quantity_name = "Kd"
reported_value = "250 to 500 nM"

[[record]]
compound = "COc1cc2ncnc(Sc3cccc(NC(=O)Nc4cc(C(C)(C)C)on4)c3)c2cc1OC [Ex 46]"
assayed_target = "RAF kinases (Homo sapiens)"
quantity_name = "Kd"
reported_value = "250 to 500 nM"

